Test system: Saccharomyces cerevisiae
Assay: protein stability index of tFT-peptide fusion (C-terminal peptide) (PSI (0-1 scale)); higher = more stable (slower turnover)
Details: genetic background: das1 deletion; temperature: 30 C
Response key: Satisfied means protein stability index >= 0.7; Not satisfied means protein stability index < 0.7.

Can ALVGIFVLAFFN [HPF1 C-terminal 12 aa] be said to have protein stability index at or above 0.7?
Not satisfied

Form field: protein stability index at least 0.7? Entry: MTRLKKLLTLEW [ZIP2 C-terminal 12 aa]
Satisfied

====

System: Saccharomyces cerevisiae
Test: protein stability index of tFT-peptide fusion (C-terminal peptide) (PSI (0-1 scale)); higher = more stable (slower turnover)
Conditions: genetic background: wild type; temperature: 30 C
Would you kindly list protein stability index for each of these sequences?
Write no unit; give the number alone.

Noted for NKPPGVGHGGVT : its protein stability index reads 0.672

Sample GGRGWAGRGGSG ; protein stability index observed: 0.707

// field: protein stability index; key: ALLYIVVGWSLS ; value = 0.24

response.value for IGFFFACFFSVF (field: protein stability index) = 0.442

So for LVLCCGFWFRAV , the logged protein stability index turned out to be 0.381

# protein stability index of HRPGYLTSSASD = 0.65

protein stability index recorded for this sequence, PLPPPLPLSSPP , is 0.67

The reported value for SIVPIIPDSVPP in terms of protein stability index is 0.676

Lookup result for CDDIIKGEIRIM ; measured protein stability index: 0.722

For AWWMALAVPIVA the sequence record lists protein stability index as 0.0514

====

Would you kindly list protein stability index for each of these sequences?
Test system: Saccharomyces cerevisiae
Experiment: protein stability index of tFT-peptide fusion (C-terminal peptide) (PSI (0-1 scale)); higher = more stable (slower turnover)
Conditions: genetic background: das1 deletion; temperature: 30 C
Just the number, please, no unit after it.

The reported protein stability index value, Saccharomyces cerevisiae, for ALNTYSSGFEIA [GID10 C-terminal 12 aa] reads 0.661

Entry LLSVHMYSSSLL [YNL019C C-terminal 12 aa] , tested on Saccharomyces cerevisiae, has a reported protein stability index of 0.687

Record DNRPIYKRFFSS [HXT11 C-terminal 12 aa] ; system Saccharomyces cerevisiae; protein stability index = 0.707

Saccharomyces cerevisiae protein stability index of KEKSESLQEEIN [YET3 C-terminal 12 aa] is 0.691

Item EVLEVAEKFKEE [DOT5 C-terminal 12 aa] ; assay system Saccharomyces cerevisiae; protein stability index reported as 0.696

Log: Saccharomyces cerevisiae, sequence KSASSSPAPKDT [TRM10 C-terminal 12 aa] , protein stability index = 0.693

====

System: Saccharomyces cerevisiae
Test: protein stability index of tFT-peptide fusion (C-terminal peptide) (PSI (0-1 scale)); higher = more stable (slower turnover)
Details: genetic background: das1 deletion; temperature: 30 C
I'd appreciate it if you could supply protein stability index values for the items below.

protein stability index in this record for GGVVGRPWWYVG : 0.677

Lab note: measured protein stability index of YLGLSAVAILWM was 0.414

Value of measured protein stability index for the entry NHKNANAATLIN : 0.641

The value of protein stability index measured for the sequence YLVFSLCSYRFL turned out to be 0.511

response.value for LFLEVCFFRLYF (field: protein stability index) = 0.447

Measured protein stability index, RRVFPLIIVLLF : 0.172

Data point: VLVVTAFTFSCP ; protein stability index = 0.327

Sample VLFVRGHTLWLM ; protein stability index observed: 0.556

The reported protein stability index of the sequence GTRREFVILYLF was 0.525

Measured protein stability index of WGFLSVVCLSGV : 0.4

Lab note: KNGNVEILIKCT gave protein stability index of 0.485

get_value(item= GGLVVYVWGRWS , readout=protein stability index) returns 0.383

protein stability index in this record for WLMVGVDWRFVG : 0.57

The recorded protein stability index for PSPVPPPSSPSP is 0.67

Value of protein stability index reported for the sequence FFVFYICSCFLV is 0.389

For reference, reported protein stability index for GGKTLSIFLRIS stands at 0.554

Sure, the documented protein stability index for EWSRVVRWNWDG is 0.637

Briefly, protein stability index measured for RNWVVDGWRRFP : 0.684

Entry under test: FVSGRFLFFFVL . Its protein stability index was 0.489

====

Tested on: Saccharomyces cerevisiae
Assay: protein stability index of tFT-peptide fusion (C-terminal peptide) (PSI (0-1 scale)); higher = more stable (slower turnover)
Conditions: genetic background: wild type; temperature: 30 C
Outcome: class 1 for protein stability index of at least 0.7; class 0 for anything lower.

Check if protein stability index >= 0.7 (inclusive). Item: RNTRAPTRNVPE
class 0

# bool: protein stability index of CWFGLVSLFWVV >= 0.7
class 0

Is the recorded value of protein stability index equal to or greater than 0.7 for this sequence? PDPPPTRPFPAP
class 0

Is protein stability index for VQGIKFRNSVEV at or above 0.7?
class 0

Kindly determine if protein stability index recorded for GAWLAVCVVREG is above or exactly 0.7.
class 0

I'd appreciate it if you could say whether GGCRRGVQLFWD has protein stability index at least equal to 0.7.
class 1

Record LGPDSCRLPLAQ ; criterion: protein stability index no lower than 0.7. Met?
class 1

Has PPHPAPPLQPQT a recorded protein stability index greater than or equal to 0.7?
class 0

Hi team, for HTPRLRRMRDYH , is the recorded protein stability index at or above 0.7?
class 0

Form field: protein stability index at least 0.7? Entry: PPPPLPHPALPP
class 0

Does the reported protein stability index for LVWDLFRCFSML fall at or above the 0.7 mark?
class 0

Is reported protein stability index greater than or equal to 0.7 here: RSGVSCPRVDDR
class 0

Form field: protein stability index at least 0.7? Entry: GVGLIGVLTCGL
class 0

Quick check, protein stability index >= 0.7? LGNFSLSARSYM
class 1

Please indicate if the recorded protein stability index for HGIGRDTSEHGR meets or exceeds 0.7.
class 0

Decide: is the reported value of protein stability index for PPSRPLPALPFP equal to or greater than 0.7?
class 0

Check the entry ALRLLLFISKSP : does protein stability index equal or exceed 0.7?
class 0

Dear colleague, could you confirm whether FIFPPLFFSPVL has protein stability index at or above 0.7?
class 1

# check: protein stability index of MERAGTAEGGGA is greater than or equal to 0.7
class 0

Check this sequence for protein stability index at or above 0.7: LKFSLLLPVQVI
class 0

Reported protein stability index reaches at least 0.7 for SIFPLSLLLPLP ?
class 1

Check the entry PSSSLAPPPGRL : does protein stability index equal or exceed 0.7?
class 0

# bool: protein stability index of RWGVFRSLPSPS >= 0.7
class 0

hey, is protein stability index for this one >= 0.7? INWNVMDRVTCN
class 0

Is the recorded value of protein stability index equal to or greater than 0.7 for this sequence? RIIRPRSTKDHP
class 1

Threshold query (protein stability index >= 0.7) on KKKQMREQPKNE
class 1

Does the sequence KNNERIDKRKKI have recorded protein stability index that is 0.7 or more?
class 1

Reported protein stability index reaches at least 0.7 for GPVTSFAPVAVS ?
class 0

Check the entry SHTVVFRVCTGS : does protein stability index equal or exceed 0.7?
class 0

====

System: Saccharomyces cerevisiae
Assay: protein stability index of tFT-peptide fusion (C-terminal peptide) (PSI (0-1 scale)); higher = more stable (slower turnover)
Details: genetic background: das1 deletion; temperature: 30 C
MEASURED_ENDPOINT: protein stability index
Enter the number alone.

Notebook: FGSFVVWGVWWG , protein stability index read as 0.352

Reported protein stability index of GFFFFHGLCFFV : 0.382

VCVVVLVGVVFL yielded protein stability index of 0.237

According to the records, this sequence PISLYFVWFFFF displays protein stability index of 0.251

Reported protein stability index for SFVVVFTFFFGC was 0.239

The recorded protein stability index for ILVLKFLRLLSA is 0.444

protein stability index in this record for FFVFLVLFCLWV : 0.302

protein stability index for SVLVSVVLFVRS is 0.176

Documented protein stability index of VGFCICISIMSF : 0.125

Form: sequence = VFYWVGVLCGWG ; protein stability index = 0.293

The recorded protein stability index for QGRRKEKAVTLN is 0.648

Kindly note the recorded protein stability index for LYSLRRNWLRTP , which is 0.672

Note to self: protein stability index recorded for CWFGLVSLFWVV was 0.421

SFIVGYRWNNRN yielded protein stability index of 0.647

Just so you know, measured protein stability index for LQCVYFVFFICF came out at 0.266

Value of measured protein stability index for the entry LPIFWVWFSVFR : 0.269

sequence YVLLSRVSVFSA , protein stability index observed: 0.378

Field protein stability index (entry SWFRRPFPPRLL ) reads 0.606

The sequence CLILGLFSLIFL showed protein stability index equal to 0.452
